- Test system: Staphylococcus aureus
- condition_parameters: Concentration 32 ug.mL-1;; ASSAY_TEST Inhibition of Bacterial Growth; detection method Absorption (OD600); MEDIA CAMHB; plate type 384well; NBS; CORNING #3640; time 18 hr
- Description: Antibacterial activity against Staphylococcus aureus MRSA ATCC 43300 (CO-ADD:GP_020); MIC in CAMBH media, using NBS plates, by OD(600)
Potency and affinity values are given separately.

[
  {
    "smiles_repr": "O=C(CCc1nnc2c(N3CCCCC3)nc3ccccc3n12)NCc1ccc(F)cc1",
    "test_system": "Staphylococcus aureus",
    "Inhibition / %": 1.77
  },
  {
    "smiles_repr": "Cc1cccc(CN(c2ccc(F)cc2)S(=O)(=O)c2ccc3nnc(C)n3c2)c1",
    "test_system": "Staphylococcus aureus",
    "Inhibition / %": 5.07
  },
  {
    "smiles_repr": "CCOC(=O)c1cccc(NC(=O)CSc2nnc3ccc(C(=O)Nc4cccc(F)c4)cn23)c1",
    "test_system": "Staphylococcus aureus",
    "Inhibition / %": 5.02
  },
  {
    "smiles_repr": "COC(=O)c1ccc(NC(=O)Cn2nc3ccc(Sc4ccc(C)cc4)nn3c2=O)cc1",
    "test_system": "Staphylococcus aureus",
    "Inhibition / %": 10.91
  },
  {
    "smiles_repr": "COc1ccc(Cl)cc1NC(=O)Cn1nc2c3cc(-c4ccc(C)cc4)nn3ccn2c1=O",
    "test_system": "Staphylococcus aureus",
    "Inhibition / %": 13.21
  },
  {
    "smiles_repr": "CCOc1ccc(-n2ccn3c(SCC(=O)Nc4ccc(C)cc4Cl)nnc3c2=O)cc1",
    "test_system": "Staphylococcus aureus",
    "Inhibition / %": 8.62
  },
  {
    "smiles_repr": "CCc1ccccc1NC(=O)Cn1nc2n(CCC(C)C)c(=O)c3sccc3n2c1=O",
    "test_system": "Staphylococcus aureus",
    "Inhibition / %": -2.34
  },
  {
    "smiles_repr": "O=c1n(Cc2c(F)cccc2Cl)nc2ccc(-c3ccccc3)nn12",
    "test_system": "Staphylococcus aureus",
    "Inhibition / %": 7.33
  },
  {
    "smiles_repr": "Cc1ccccc1Oc1nccn2c(=O)n(CC(=O)Nc3ccc(C(C)C)cc3)nc12",
    "test_system": "Staphylococcus aureus",
    "Inhibition / %": -1.76
  },
  {
    "smiles_repr": "O=C(Cn1nc2c(Oc3ccccc3)nccn2c1=O)Nc1cc(F)ccc1F",
    "test_system": "Staphylococcus aureus",
    "Inhibition / %": -5.96
  },
  {
    "smiles_repr": "COc1ccc(-c2cc3c4nnc(CCC(=O)N5CCN(c6ccccc6F)CC5)n4ccn3n2)cc1",
    "test_system": "Staphylococcus aureus",
    "Inhibition / %": 13.19
  },
  {
    "smiles_repr": "Cc1cc(C)c(NC(=O)Cn2nc3ccc(-c4ccc(C)c(C)c4)nn3c2=O)c(C)c1",
    "test_system": "Staphylococcus aureus",
    "Inhibition / %": -8.09
  },
  {
    "smiles_repr": "COc1cccc(-n2ccn3c(SCc4cccc(Cl)c4)nnc3c2=O)c1",
    "test_system": "Staphylococcus aureus",
    "Inhibition / %": 12.15
  },
  {
    "smiles_repr": "COc1ccccc1-n1ccn2c(SCC(=O)c3ccc(C)cc3C)nnc2c1=O",
    "test_system": "Staphylococcus aureus",
    "Inhibition / %": 6.26
  },
  {
    "smiles_repr": "Cc1ccc(-c2ccc3nn(CC(=O)N4CCN(c5ccccc5F)CC4)c(=O)n3n2)cc1C",
    "test_system": "Staphylococcus aureus",
    "Inhibition / %": 3.55
  },
  {
    "smiles_repr": "Cc1ccc(CNC(=O)Cn2nc3c(Oc4ccccc4C)nccn3c2=O)cc1",
    "test_system": "Staphylococcus aureus",
    "Inhibition / %": 5.58
  },
  {
    "smiles_repr": "Cc1ccc(NC(=O)Cn2nc3c4cc(-c5ccc(Cl)cc5)nn4ccn3c2=O)cc1F",
    "test_system": "Staphylococcus aureus",
    "Inhibition / %": 11.6
  },
  {
    "smiles_repr": "O=c1c2nnc(SCc3ccc(F)cc3)n2ccn1-c1ccc(Br)cc1",
    "test_system": "Staphylococcus aureus",
    "Inhibition / %": 3.87
  },
  {
    "smiles_repr": "Cc1cc(C)c(C(=O)CSc2nnc3c(=O)n(-c4ccc(F)cc4)ccn23)cc1C",
    "test_system": "Staphylococcus aureus",
    "Inhibition / %": 6.25
  },
  {
    "smiles_repr": "Cc1ccc(C)c(Cn2nc3n(CC(C)C)c(=O)c4sccc4n3c2=O)c1",
    "test_system": "Staphylococcus aureus",
    "Inhibition / %": 12.61
  }
]

* * *

- Tested on: Staphylococcus aureus
- condition_parameters: Concentration 32 ug.mL-1;; ASSAY_TEST Inhibition of Bacterial Growth; detection method Absorption (OD600); MEDIA CAMHB; plate type 384well; NBS; CORNING #3640; time 18 hr
Measured potencies and affinities stand elsewhere.

[
  {
    "compound": "CCOC(=O)C1CCCN(C(=O)Cn2nc3n(CC(C)C)c(=O)c4sccc4n3c2=O)C1 (stereo not given)",
    "units_text": "%",
    "Inhibition": -2.49
  },
  {
    "compound": "O=C(CSc1nnc2c(=O)n(Cc3ccc(F)cc3)ccn12)NCC1CCCO1 (stereo not given)",
    "units_text": "%",
    "Inhibition": 8.21
  },
  {
    "compound": "Cc1ccc(NC(=O)Cn2nc3cc(C)nc(Nc4ccc(F)c(C)c4)n3c2=O)cc1",
    "units_text": "%",
    "Inhibition": 11.03
  },
  {
    "compound": "COc1cccc(Oc2nccn3c(=O)n(CC(=O)NCc4ccc(SC)cc4)nc23)c1",
    "units_text": "%",
    "Inhibition": 10.98
  },
  {
    "compound": "O=c1n(Cc2nc(-c3ccc(OC(F)(F)F)cc3)no2)nc2ccc(-c3ccccc3)nn12",
    "units_text": "%",
    "Inhibition": -0.65
  },
  {
    "compound": "C=Cc1ccc(CSc2nnc3c(=O)n(-c4ccc(F)cc4)ccn23)cc1",
    "units_text": "%",
    "Inhibition": 18.57
  },
  {
    "compound": "CCc1nnc2c(S(=O)(=O)N(Cc3ccccc3C)c3ccc(C(C)C)cc3)cccn12",
    "units_text": "%",
    "Inhibition": 3.95
  },
  {
    "compound": "Cc1ccccc1Oc1nc2ccccc2n2c(=O)n(CC(=O)Nc3cccc(C(F)(F)F)c3)nc12",
    "units_text": "%",
    "Inhibition": 7.78
  },
  {
    "compound": "Cc1cccc(NC(=O)CSc2nnc3ccc(C(=O)Nc4cccc(F)c4)cn23)c1C",
    "units_text": "%",
    "Inhibition": 10.8
  },
  {
    "compound": "Cc1cc(Nc2ccc(F)cc2)nc2nn(Cc3cccc(C#N)c3)c(=O)n12",
    "units_text": "%",
    "Inhibition": -3.76
  }
]

* * *

- Tested on: Staphylococcus aureus
- condition_parameters: Concentration 32 ug.mL-1;; ASSAY_TEST Inhibition of Bacterial Growth; detection method Absorption (OD600); MEDIA CAMHB; plate type 384well; NBS; CORNING #3640; time 18 hr
Potency and affinity values are given separately.
property_measured: Inhibition

[
  {
    "compound": "CCc1nnc2ccc(S(=O)(=O)N(Cc3ccc(F)cc3)c3ccccc3)cn12",
    "recorded_value": "-1.95%"
  },
  {
    "compound": "Cc1ccc(-c2ccc3nn(CC(=O)N4CCN(c5ccccc5)CC4)c(=O)n3n2)cc1C",
    "recorded_value": "8.01%"
  },
  {
    "compound": "COc1ccc(-n2ccn3c(-c4ccc([N+](=O)[O-])cc4)nnc3c2=O)cc1Cl",
    "recorded_value": "17.28%"
  },
  {
    "compound": "COc1cccc(Sc2nc3ccccc3n3c(=O)n(CC(=O)Nc4cc(C)cc(C)c4)nc23)c1",
    "recorded_value": "0.14%"
  },
  {
    "compound": "CCCc1nnc2c(=O)n(CC(=O)Nc3ccc(C(C)=O)cc3)c3ccccc3n12",
    "recorded_value": "1.62%"
  },
  {
    "compound": "Cc1ccc(NC(=O)CSc2nc3ccccc3n3c(C)nnc23)c(Br)c1",
    "recorded_value": "15.19%"
  },
  {
    "compound": "CCC(C)NC(=O)Cn1nc2n(CCC(C)C)c(=O)c3sccc3n2c1=O (stereo not given)",
    "recorded_value": "-2.65%"
  },
  {
    "compound": "CC(C)Sc1ccc2nn(CC(=O)Nc3ccccc3F)c(=O)n2n1",
    "recorded_value": "-5.65%"
  },
  {
    "compound": "Cc1cc2nn(CC(=O)Nc3cc(F)cc(F)c3)c(=O)n2c(Nc2ccccc2C)n1",
    "recorded_value": "5.53%"
  },
  {
    "compound": "COc1ccccc1CNC(=O)Cn1nc2c(N3CCC(C)CC3)nccn2c1=O",
    "recorded_value": "13.11%"
  }
]
